# Assayed System: T1, Human Factor P (human, UniProt P27918 29-469)
# T1 construct: Bought protein (Complement Technology cat# A139) in SET and Biacore; Factor P of human serum in the functional assays; also called FP; human FP
# T1 sequence (P27918 29-469 limits assumed): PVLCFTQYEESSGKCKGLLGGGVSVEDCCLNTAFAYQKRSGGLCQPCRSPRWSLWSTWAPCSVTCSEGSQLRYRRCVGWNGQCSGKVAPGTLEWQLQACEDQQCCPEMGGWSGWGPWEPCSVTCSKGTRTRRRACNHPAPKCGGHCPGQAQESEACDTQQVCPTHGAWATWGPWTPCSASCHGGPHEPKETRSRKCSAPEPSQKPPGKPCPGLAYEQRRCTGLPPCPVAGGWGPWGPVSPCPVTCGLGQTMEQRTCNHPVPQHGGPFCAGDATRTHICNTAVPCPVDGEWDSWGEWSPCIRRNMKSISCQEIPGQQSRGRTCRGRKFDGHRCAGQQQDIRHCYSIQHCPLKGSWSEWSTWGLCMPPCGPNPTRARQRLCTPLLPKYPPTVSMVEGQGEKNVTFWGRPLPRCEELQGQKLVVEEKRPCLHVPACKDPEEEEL
# Experimental Protocol: Biacore SPR, captured Factor P
Reported Property: Kd (nM)

1. NVS965 (Fab, V domains shown, Disulfide-bridged Fab; also called Fab NVS965) VH: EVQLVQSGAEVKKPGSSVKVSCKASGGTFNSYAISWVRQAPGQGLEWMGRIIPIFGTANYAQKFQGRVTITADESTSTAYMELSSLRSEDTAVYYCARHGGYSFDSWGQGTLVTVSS VL: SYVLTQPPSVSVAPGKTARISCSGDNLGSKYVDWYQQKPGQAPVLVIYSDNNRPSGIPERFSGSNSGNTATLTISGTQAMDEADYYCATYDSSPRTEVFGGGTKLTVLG
0.016
2. NVS808 (Fab, V domains shown) VH: EVQLVQSGAEVKKPGSSVKVSCKASGGTFSSYAISWVRQAPGQGLEWMGRIIPIFGTANYAQKFQGRVTITADESTSTAYMELSSLRSEDTAVYYCARHGGYIFDSWGQGTLVTVSS VL: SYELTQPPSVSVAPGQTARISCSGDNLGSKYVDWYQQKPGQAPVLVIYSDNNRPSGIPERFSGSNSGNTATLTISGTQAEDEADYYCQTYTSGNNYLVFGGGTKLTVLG
0.195
3. NVS962 (Fab, V domains shown, also called Fab NVS962) VH: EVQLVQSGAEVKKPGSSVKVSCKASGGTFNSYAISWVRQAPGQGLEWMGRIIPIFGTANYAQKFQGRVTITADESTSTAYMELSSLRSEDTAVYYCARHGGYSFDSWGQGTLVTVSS VL: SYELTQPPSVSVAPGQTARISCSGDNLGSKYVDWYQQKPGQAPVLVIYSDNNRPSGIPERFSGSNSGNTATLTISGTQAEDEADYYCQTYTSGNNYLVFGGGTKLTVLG
0.083
